Target: CRTH2 receptor (hCRTH2) (Homo sapiens, UniProt Q9Y5Y4)
Construct: expressed in transfected cells; host or cells: HEK cells (HEK-hCRTH2 cell line), membranes
Sequence (Q9Y5Y4 whole entry): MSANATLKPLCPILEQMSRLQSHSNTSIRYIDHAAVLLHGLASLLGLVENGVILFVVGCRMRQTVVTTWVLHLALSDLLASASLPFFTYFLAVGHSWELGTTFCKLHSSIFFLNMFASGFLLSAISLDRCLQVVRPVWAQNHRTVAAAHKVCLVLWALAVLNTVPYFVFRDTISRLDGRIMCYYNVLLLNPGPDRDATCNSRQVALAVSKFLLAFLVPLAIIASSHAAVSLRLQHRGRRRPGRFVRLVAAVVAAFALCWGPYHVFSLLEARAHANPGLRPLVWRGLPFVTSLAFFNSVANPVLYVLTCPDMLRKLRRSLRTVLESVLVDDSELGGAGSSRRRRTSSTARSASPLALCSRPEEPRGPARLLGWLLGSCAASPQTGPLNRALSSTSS
Test: Radioligand binding assay ([3H]PGD2 competition, membranes of HEK-hCRTH2 cell line)
Conditions: 3.0 nM [3H]PGD2, HEK-hCRTH2 membranes, 60 min, room temperature; read-out: Ki
Measure Name: Ki

Provide Ki value for the following compound: O=C(O)CCCCc1nc2cc(-c3cc(COCc4cc(F)ccc4F)on3)ccc2c(=O)n1-c1ccc(F)cc1 [Example 275]
≤ 10 nM

Provide Ki value for the following compound: N#CC1CC2(CC(c3ccc4c(=O)n(-c5ccc(Cl)cc5)c(CCCCC(=O)O)nc4c3)=NO2)C1 (stereo not shown) [Example 15Z]
≤ 10 nM

Provide Ki value for the following compound: CC1(C(=O)N2Cc3ccccc3C2)CC(c2ccc3c(=O)n(-c4ccc(F)cc4)c(CCCCC(=O)O)nc3c2)=NO1 (stereo not shown) [Example 199]
≤ 10 nM

Provide Ki value for the following compound: O=C(O)CCCCc1nc2cc(C3=NOC(c4ccccn4)C3)ccc2c(=O)n1-c1ccc(Cl)cc1 (stereo not shown) [Example 15L]
≤ 10 nM

Provide Ki value for the following compound: C[C@H]1C(c2ccc3c(=O)n(-c4ccc(F)cc4)c(CCCCC(=O)O)nc3c2)=NO[C@@H]1c1ccccc1 [Example 286]
≤ 10 nM

Provide Ki value for the following compound: O=C(O)CCCCc1nc2cc(C3=NOC(c4ccccc4)C3)ccc2c(=O)n1-c1ccc(Cl)cc1 (stereo not shown) [Example 15K]
≤ 10 nM

Provide Ki value for the following compound: COc1cccc(C2CC(c3ccc4c(=O)n(-c5ccc(F)cc5)c(CCCCC(=O)O)nc4c3)=NO2)c1 (stereo not shown) [Example 15N]
≤ 10 nM

Provide Ki value for the following compound: O=C(O)CCCCc1nc2cc(C3=NOC(c4nc5ccccc5o4)C3)ccc2c(=O)n1-c1ccc(F)cc1 (single isomer, unassigned) [Example 28D]
10 to 50 nM

Provide Ki value for the following compound: C[C@H](Oc1ccc(F)cc1)c1cc(-c2ccc3c(=O)n(-c4ccc(F)cc4)c(CCCCC(=O)O)nc3c2)no1 [Example 268]
≤ 10 nM

Provide Ki value for the following compound: C[C@]1([C@H](O)c2ccccc2)CC(c2ccc3c(=O)n(-c4ccc(F)cc4)c(CCCCC(=O)O)nc3c2)=NO1 [Example 26G]
10 to 50 nM

***
Provide Ki value for the following compound: CC1(c2cc3ccccn3n2)CC(c2ccc3c(=O)n(-c4ccc(F)cc4)c(CCCCC(=O)O)nc3c2)=NO1 (stereo not shown) [Example 193]
≤ 10 nM

Provide Ki value for the following compound: O=C(O)CCCCc1nc2cc(-c3cc(CSc4nc5cc(OC(F)F)ccc5[nH]4)on3)ccc2c(=O)n1-c1ccc(F)cc1 [Example 39]
10 to 50 nM

Provide Ki value for the following compound: C[C@@]1(c2nc3cc(C(F)(F)F)ccc3[nH]2)CC(c2ccc3c(=O)n(-c4ccc(F)cc4)c(CCCCC(=O)O)nc3c2)=NO1 [Example 196]
≤ 10 nM

Where these numbers come from: patent US8927559B2
